Note to self: values exactly at 2 are true (1). So log10 Koc (L/kg) at or above 2 is true (1), below is false (0).

Exam item: Textbook exercise: given the entry CCOP(=S)(OCC)Oc1cc(C)nc(C(C)C)n1 , state whether its log10 Koc (L/kg) is greater than or equal to 2.
Marked response: true (1)

Exam item: Is log10 Koc (L/kg) for Cc1cc(N)ccc1Br at or above 2?
Marked response: true (1)

Exam item: I'd appreciate it if you could say whether ClC1=C(Cl)C2(Cl)C3C(Cl)C(Cl)CC3C1(Cl)C2(Cl)Cl (centres undefined) has log10 Koc (L/kg) at least equal to 2.
Marked response: true (1)

Exam item: Textbook exercise: given the entry COc1ccc(N)cc1Cl , state whether its log10 Koc (L/kg) is greater than or equal to 2.
Marked response: false (0)

Exam item: Would you say CNC(=O)c1ccccc1 shows log10 Koc (L/kg) at minimum 2?
Marked response: false (0)

Exam item: Tell me whether log10 Koc (L/kg) is at least 2 here: CNC(=O)ON=C(SC)C(=O)N(C)C
Marked response: false (0)

Exam item: Does the compound O=C(Nc1ccccc1)NC1CCCC1 have recorded log10 Koc (L/kg) that is 2 or more?
Marked response: false (0)

Exam item: Determine whether measured log10 Koc (L/kg) meets or exceeds 2 for CNC(=O)CSP(=S)(OC)OC
Marked response: false (0)

Exam item: Determine whether measured log10 Koc (L/kg) meets or exceeds 2 for CCNc1nc(NC(C)C)nc(SC)n1
Marked response: true (1)

Exam item: Threshold query (log10 Koc (L/kg) >= 2) on C[C@@H]1[C@@H](c2ccc(Cl)cc2)SC(=O)N1C(=O)NC1CCCCC1 (single isomer, unassigned)
Marked response: true (1)

Exam item: Please check the record C#CC(C)OC(=O)Nc1cccc(Cl)c1 (centres undefined) and state if its log10 Koc (L/kg) is at or above 2.
Marked response: true (1)

Exam item: Kindly determine if log10 Koc (L/kg) recorded for COP(=S)(OC)SCn1nnc2ccccc2c1=O is above or exactly 2.
Marked response: true (1)

Exam item: For this compound, is measured log10 Koc (L/kg) 2 or higher? Clc1cc(Cl)c(Cl)c(-c2c(Cl)c(Cl)cc(Cl)c2Cl)c1Cl
Marked response: true (1)

Exam item: State whether the measured log10 Koc (L/kg) reaches 2, counting equality as reaching it, for CN(C)c1ccccc1
Marked response: true (1)

---

I'd be grateful if you could share measured melting point for these entries.
Value expressed in °C; do not type the unit.

Exam item: Please list melting point recorded for the molecule COc1ccc(OC)c(C=O)c1
Marked response: 52

Exam item: Find the measured melting point of COc1cc(Cl)c(Cl)cc1Cl and report it.
Marked response: 77.5

Exam item: Provide only the value of recorded melting point for CN[C@@H](Cc1ccc(O)cc1)C(=O)O
Marked response: 293

Exam item: Return melting point (reported value) for this molecule: Clc1cc(Cl)c2oc3c(Cl)c(Cl)ccc3c2c1
Marked response: 164

Exam item: Indicate its recorded melting point; the molecule in question is O=C(O)CCc1nc(-c2ccccc2)c(-c2ccccc2)o1
Marked response: 161

Exam item: Return the recorded melting point value; entry: Oc1ccc(/C=C/c2cc(O)cc(O)c2)cc1
Marked response: 254

Exam item: Determine from records and report melting point for C[C@]12CC[C@H]3[C@@H](CCC4=CC(=O)CC[C@@]43C)[C@@H]1CC[C@@H]2OC(=O)CCC1CCCC1
Marked response: 155

Exam item: // Input: O=C(CCCN1CCC(n2c(=S)[nH]c3ccccc32)CC1)c1ccc(F)cc1 . Output its melting point only.
Marked response: 202

Exam item: Report measured melting point; entry is CCCCCCC(O)CCCCC (stereo not drawn)
Marked response: 30

Exam item: Look up melting point of CO[C@H]1O[C@H](CO)[C@@H](O)[C@H](O)[C@H]1O and report it.
Marked response: 168

Exam item: Answer with the recorded melting point of Cc1cccc2c1Cc1ccccc1-2 only.
Marked response: 85

Exam item: Entry CC(C)COC(=O)c1ccc(C(=O)OCC(C)C)cc1 needs its melting point filled in; supply it.
Marked response: 55

Exam item: Answer with reported melting point of Cc1ccc(O)cc1O
Marked response: 106

Exam item: Indicate the recorded melting point value for this molecule: CC(=O)Nc1ccccc1[N+](=O)[O-]
Marked response: 94

Exam item: Read off the recorded melting point for Clc1ccc(-c2c(Cl)cc(Cl)cc2Cl)cc1
Marked response: 65

Exam item: Give the reported value of melting point for this record: O=C1CCCC(=O)O1
Marked response: 56.3

Exam item: Give recorded melting point. CC1CCc2ccccc2C1 (stereo not drawn)
Marked response: -43.1

Exam item: Quickly give me recorded melting point for CCF
Marked response: -143

Exam item: Return value of melting point for input O=C(Nc1ccc(Cl)cc1)Nc1ccc(Cl)c(C(F)(F)F)c1 , no commentary.
Marked response: 214

Exam item: Please list melting point recorded for the molecule C[C@@H]1CCC[C@H](C)C1 (racemic)
Marked response: -82.8

Exam item: Quick one: give measured melting point for CC1(C)CC(NCCCCCCNC2CC(C)(C)NC(C)(C)C2)CC(C)(C)N1
Marked response: 64

Exam item: Indicate its recorded melting point; the molecule in question is FC(F)(F)c1ccc2c(c1)Nc1ccccc1S2
Marked response: 189

Exam item: Give the reported value of melting point for this record: CC(C)OC(C)(C)C
Marked response: -88

Exam item: Return reported melting point. Input molecule: CN.Cl
Marked response: 228

Exam item: State, in one line, measured melting point of C#CCOC(=O)[C@@H](C)Oc1ccc(Oc2ncc(Cl)cc2F)cc1
Marked response: 59.5

Exam item: # return recorded melting point for entry ClC(Cl)=C(Cl)C(Cl)(Cl)Cl
Marked response: -72.9

Exam item: Let me know recorded melting point for O[C@@H]1CCc2ccccc21 , thanks.
Marked response: 54.8

Exam item: # return recorded melting point for input CCCCCCCCCC=O
Marked response: -5

Exam item: Entry c1ccc(CCc2ccccc2)cc1 needs its melting point filled in; supply it.
Marked response: 52.5

Exam item: Entry Cc1cccc(C)c1NC(=O)C(C)N (stereo not drawn) needs its melting point filled in; supply it.
Marked response: 256

Exam item: Identify the reported melting point for the following entry. CC[C@H]1C[N@@]2CC[C@H]1C[C@H]2[C@H](O)c1ccnc2ccc(OC)cc12
Marked response: 170

Exam item: // fetch melting point given entry COc1c(Cl)ccc(Cl)c1C(=O)O
Marked response: 115

Exam item: Give the reported melting point for this molecule. CCCCOCCOCCOC(C)=O
Marked response: -32

Exam item: Could you please provide reported melting point for CC1=NNC(=O)N(/N=C/c2cccnc2)C1 ? Thanks!
Marked response: 217

Exam item: Report melting point, nothing else, for this molecule: CCCS(=O)CCC
Marked response: 22.5

Exam item: Respond only with melting point recorded for CCC(O)C(C)(C)C (stereo not drawn)
Marked response: -5

Exam item: Please supply the value of reported melting point for the item CCC(=O)N(C)C
Marked response: -45

Exam item: Item Cc1n[nH]c(=O)[nH]c1=O : provide melting point
Marked response: 211

Exam item: Fill in reported melting point for this entry: C/C=C\C(=O)OC1C[C@H]2O[C@@H]3C=C(C)C(=O)C[C@]3(C)[C@]1(C)C21CO1 (stereo partly drawn)
Marked response: 118

Exam item: Note down melting point recorded for O=C(O)[C@@H]1CCCN1C(=O)OCc1ccccc1
Marked response: 77

Exam item: Read off the recorded melting point for COc1ncnc(NS(=O)(=O)c2ccc(N)cc2)c1OC
Marked response: 192

Exam item: Give the reported value of melting point for this record: CC1c2ccccc2-c2ccccc21
Marked response: 46.5

Exam item: For the molecule O=Cc1ccc([N+](=O)[O-])cc1 , give its measured melting point value.
Marked response: 107

Exam item: Using the record for CN(C)c1ccc2cc3ccc(N(C)C)cc3nc2c1 , state its measured melting point.
Marked response: 165

Exam item: For the molecule O=[N+]([O-])c1cc(Cl)ccc1O , give its measured melting point value.
Marked response: 88.5

Exam item: Entry CC(C)=CC(=O)C=C(C)C needs its melting point filled in; supply it.
Marked response: 28

Exam item: Supply reported melting point belonging to this molecule: CCN(CCO)c1ccc(/N=N/c2ccc([N+](=O)[O-])cc2Cl)cc1
Marked response: 133

Exam item: // fetch melting point given entry CCCCCCCCCCCCCCCCC(CCC)c1ccccc1 (stereo not drawn)
Marked response: 31.4

Exam item: Provide one value: measured melting point of Cc1c2ccccc2c(C)c2ccccc12
Marked response: 183

Exam item: Query melting point for CC(c1ccccc1)(c1ccccc1)c1ccccc1
Marked response: 95

Exam item: Return reported melting point. Input molecule: C#CC(C)C
Marked response: -89.7

Exam item: Fill in melting point for record CN1CCN(CCCN2c3ccccc3Sc3ccc(C(F)(F)F)cc32)CC1.Cl.Cl
Marked response: 240

Exam item: Report melting point, nothing else, for this molecule: Nc1ccccc1S
Marked response: 26

Exam item: Please list melting point recorded for the molecule CC(C)N(N=O)C(C)C
Marked response: 48

Exam item: Please indicate melting point recorded for CC(=O)N(C)c1ccccc1
Marked response: 103

Exam item: Answer with the recorded melting point for the molecule listed here: Cc1cccc(N=Cc2ccccc2)c1
Marked response: 31

Exam item: Determine from records and report melting point for CC(=O)c1cccc2ccccc12
Marked response: 34

Exam item: Identify the reported melting point for the following entry. O=C(O)c1ccc(O)c(O)c1O
Marked response: 221
